Values were extracted from the supplement of paper PMC9170038.

Test system: MS2 coat protein
protocol_description: apparent KD of MS2 coat protein, switch ON state; designed switch direction (-1 OFF switch, 1 ON switch): 1; higher = weaker reporter binding
assay_setup: FMN input: 0 or 200 uM; Eterna round: R93 (includes R88 designs)
property_measured: apparent KD of MS2 coat protein (nM)
Answers are plain numbers, in nM.

# example entries with known answers
1. AACAAUCUAUCUGAGGAUAUGUGUCGAAAGACAUGAGGAUCACCCAUGUAAAAACAUGGAAAGAUACAGAAGGCAGAUAGAUUGA [SS2: 1157] ... 28.4
2. GAGGACAUAGUACAGGAUAUAUGAAUAGUUACAUGAGGAUCACCCAUGUGCAUUUAUAUGCGCACAUAGAAGGGUGGUAGUUAUC [SameState2 Malc#29] ... 38.8
3. AACAAUCUAUCUGAGGAUAUCAAAAAAAAAACAUGAGGAUCACCCAUGUCUAGGAAAACUAGAUAUGAGAAGGCAGAUAGAUUGA [SS1 - 593] ... 7.93
4. AAAAAACAUGAGGAUCACCCAUGUGCAAAAUUCGCAGGAUAUUUUUUUUUUAAAUGAGAGGGAGAAGGGUGUAAAA [Nob's Hobby 22 - Jieux - Same State 1] ... 27.4
5. GGAAAUAACAGAGAGGAUAUCCAAAGGAAAACAUGAGGAUCACCCAUGUAAAAGGAAGGAAAUUGGGAGAAGGCUCAAAAUAGAA [salish99-ss2-019] ... 15.1

Now consider the entry below.
Can you look up the measured apparent KD of MS2 coat protein of AAUAUACAUGAGGAUCACCCAUGUUUUAAUAACUGAGGAUAUACGGGUGAAAACAGCAUAGUAGAAGGCAGAUAUA [SameState1 Malc#6] for me?
37.8

----------
Test system: MS2 coat protein
protocol_description: apparent KD of MS2 coat protein; designed switch direction (-1 OFF switch, 1 ON switch): -1; higher = weaker reporter binding
assay_setup: Eterna round: R95; input ligand: microRNA oligo, concentration not stated
property_measured: apparent KD of MS2 coat protein (nM)
Give bare numbers, in nM.

1. AGUACUGACACGUUGGUGUUAGUACCAUAAGCUUGUGAUACAUGAGGAUCACCCAUGUCCUCAUAAGCUCGUCUUAU [salish99_TOv2_r2_096] (puzzle: Sensor v3, turn-off variant 2) ... 484
2. GUGAUGUAGCACAAUAAGUUUUUUGCCGUCUUAGGUCCAACAUGAGGAUCACCCAUGUACGUCUACAUGCACUUUAA [Veveuslabe] (puzzle: Sensor v3, turn-off variant 2) ... 197

Can you look up the measured apparent KD of MS2 coat protein of GGCGACCUAGGAUAUACAUGAGGAUCACCCAUGUUUAUCUAUUAGAUGAAGACGGGUUGUAGAAGGAGGAUAUU [JL Geriin mod] (puzzle: Exclusion 3) for me?
14.6

----------
Tested on: MS2 coat protein
protocol_description: apparent KD of MS2 coat protein, switch OFF state (with FMN for OFF switches, without FMN for ON switches); designed switch direction (-1 OFF switch, 1 ON switch): 1; higher = weaker reporter binding
assay_setup: FMN input: 0 or 200 uM; Eterna round: R93 (includes R88 designs)
property_measured: apparent KD of MS2 coat protein
Write the numeric value and append its unit.

# example entries with known answers
1. GAAAAACAUGAGGAUCACCCAUGUAAAAAUAUGGGAGGAUAUAGAAAGACGAAAGUCAAACUAGAAGGCCUAAAAG [Garnet 1] ... 63 nM
2. AAGAAACAUGAGGAUCACCCAUGUAAGAUAAACACAGGAUAUGCGAAAAUAAAUAAAUAAGCAGAAGGGUGAAGAA [Mat - Same State 1 - Tesla mod - 66] ... 42.4 nM
3. AAAAAACAUGAGGAUCACCCAUGUCCUCGGACGUGAGGAUAUGUACAGACUUCGGUCUGUACAGAAGGCACGAAAA [SS1 - 1036] ... 319 nM
4. GGGAAGAACAGAGAGGAUAUCCAAAGGAAAACAUGAGGAUCACCCAUGUAAAAGGAAGGAAAUUGGGAGAAGGCUCAAAAGAGAA [salish99-ss2-023] ... 36.4 nM
5. AUAACACAUGAGGAUCACCCAUGUAGAUCCACGUCAGGAUAUGCAAAGAAAAUAAACAAAGCAGAAGGGACAAUAA [SS 1 Tesla 1] ... 49.6 nM

Now consider the entry below.
Can you look up the measured apparent KD of MS2 coat protein of CGCAGGAAGAGAGAGGAUAUCCAAAGGAAAACAUGAGGAUCACCCAUGUAAAAGGUAGGAAAUUGGGAGAAGGCUCAAGAGAGAG [salish99-ss2-100] for me?
40.9 nM
